Known IC50 of a selection of substances
# Target Desc: DR1 (DRB1*0101) (Homo sapiens, UniProt P01903+P01911, A100R/D57E/F55L/F60I/F76Y/I96L/L162R/M171V/P40L/Q125E/R42F/V115G/Y59C)
# Assay Info: biochemical
# Assay type: binding
# Condition Notes: read-out: DRB1*0101
No end group written: not given here.
Output spec: scalar in nM, unitless text.

| Substance | Parameter Measured | Value Measured |
| --- | --- | --- |
| 820.03 (ARQTTLKAAA; also: non-natural residue (15A)) [Peptide 820.03] | IC50 | 4.2 |

824.22 (AAKTAAAFA; also: non-natural residue (46)) [Peptide 824.22] yielded IC50 of 5000

820.01 (YARSQTTLKAKT; also: non-natural residue (15A)) [Peptide 820.01] yielded IC50 of 2.4

* * *

Known IC50 of a selection of sequences
# Target Desc: A*3002 (Homo sapiens, UniProt P04439, D101N/D140H/D185E/E176R/F33S/G80R/H175R/K168Q/Q94H/R138E/R41S/V100E)
# Sequence (P04439 whole entry, looked up, the tested form may be a part, stated change not applied): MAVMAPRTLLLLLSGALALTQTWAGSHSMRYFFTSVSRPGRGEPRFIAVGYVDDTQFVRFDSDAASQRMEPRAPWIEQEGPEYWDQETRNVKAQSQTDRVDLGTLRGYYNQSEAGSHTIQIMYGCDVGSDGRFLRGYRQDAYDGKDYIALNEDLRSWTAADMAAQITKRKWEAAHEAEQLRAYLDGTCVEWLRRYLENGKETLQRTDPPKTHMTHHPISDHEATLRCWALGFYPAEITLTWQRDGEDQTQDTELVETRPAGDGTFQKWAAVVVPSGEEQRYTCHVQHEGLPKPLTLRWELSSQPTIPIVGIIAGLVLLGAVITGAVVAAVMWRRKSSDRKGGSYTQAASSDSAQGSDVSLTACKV
# Assay Info: biochemical
# Type: binding
No end group written: not given here.

Recorded IC50, per entry:
| Sequence Entry | IC50 |
| --- | --- |
| IVDDSEIAY [Peptide 1580.04] | 2.03 µM |
| VTRRANGWFY [Peptide 9018.0011] | 0.00071 µM |
| STEWRLRRY [Peptide 9018.0019] | 0.0066 µM |

Continue with the next sequence.
LFDQLIHMHY [Peptide 9018.0033] yielded IC50 of 0.047 µM

* * *

Known IC50 of a selection of sequences
# Target Desc: DRB1*0901 (Homo sapiens, UniProt P01903+P01911, A100R/A103E/D57H/D86V/F55Y/F60I/F76Y/I96F/K127E/L162R/M171V/P40D/Q125H/Q99R/R33Q/R42F/S133A/S66N/T210M/V115G/W38K/Y107V/Y59G/Y89S)
# Assay Info: biochemical
# Type: binding
No end group written: not given here.

| Sequence Entry | Parameter Measured | Value Measured |
| --- | --- | --- |
| QQQMFLGTVKIPPTV [Peptide 89.0187] | IC50 | > 20 µM |
| KIGMIDDVTPISWTY [Peptide 90.0087] | IC50 | > 20 µM |
| PPLLITTNINPMLDA [Peptide 89.0139] | IC50 | > 20 µM |
| VSKLMSQLLNIPETH [Peptide 89.0101] | IC50 | > 20 µM |
| SWGMVMLMLVRFKCA [Peptide 89.0044] | IC50 | > 20 µM |
| TYGVSFMELVRPFKS [Peptide 89.0095] | IC50 | > 20 µM |

QQLLQVQTAHADKQT [Peptide 89.0115] yielded IC50 of > 20 µM

GERLEVDTELSPRLQ [Peptide 90.0048] yielded IC50 of > 20 µM

ETHMVIEPPKLRSAT [Peptide 89.0103] yielded IC50 of > 20 µM

HALFTAQEAKQHRDA [Peptide 89.0001] yielded IC50 of > 20 µM

STWHWTGCNKNTGIL [Peptide 1601.38] yielded IC50 of > 20 µM
